- assayedTarget: Optix (Drosophila melanogaster, UniProt Q95RW8 139-229)
- Sequence: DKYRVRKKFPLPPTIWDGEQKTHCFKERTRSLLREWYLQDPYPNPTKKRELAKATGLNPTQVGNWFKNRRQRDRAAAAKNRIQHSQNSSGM
- assayRemarks: FP; 33 mM phosphate pH 7.0, 90 mM NaCl, 0.01% Tween 20, 0.1 mM DTT, 0.5% agarose; room temperature
- assayConditions: tags: N-GST (pGEX-6P-1, kept); dsDNA, one strand shown
binding signal reference
valueKind: binding signal

{"columns": ["residues", "value"],
 "data": [
  ["AGAGTGACAGCT", "185 Kd / Kd of best base at the position"],
  ["AGTGTGATAGCT", "6.5 Kd / Kd of best base at the position"]
]}
